Measured values drawn from the supplement of paper PMC10567573 for this set.

B1: WSB1 (parent)
chain: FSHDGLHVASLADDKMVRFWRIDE

Variants of: B1
Test: protein stability index of a GFP-peptide fusion (GPS, HEK-293T) (PSI 1-6); higher = more stable;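 further: lentivirally expressed fusions sorted by FACS into six bins by GFP to DsRed ratio, PSI derived from sequencing read proportions per bin multiplied by bin number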
Settings: c terminus: a fixed tail appended
endpointName: protein stability index

variantidentifier=R21G observedvalue=1.47
variantidentifier=L6H observedvalue=2.27
variantidentifier=R21H observedvalue=2.42
variantidentifier=K15C observedvalue=1.53
variantidentifier=F1T observedvalue=3.73
variantidentifier=K15H observedvalue=1.65
variantidentifier=V8A observedvalue=1.94
variantidentifier=K15Y observedvalue=1.34
variantidentifier=D4E observedvalue=1.94
variantidentifier=L11I observedvalue=2.2
variantidentifier=V17L observedvalue=1.27
variantidentifier=H7N observedvalue=1.68
variantidentifier=V17N observedvalue=1.5
variantidentifier=G5D observedvalue=3.16
variantidentifier=A12Y observedvalue=1.66
variantidentifier=V17M observedvalue=1.79
variantidentifier=H3W observedvalue=1.62
variantidentifier=H3Q observedvalue=2.03
variantidentifier=V17G observedvalue=1.03
variantidentifier=H3T observedvalue=1.89
variantidentifier=E24C observedvalue=4.37
variantidentifier=E24N observedvalue=3
